target: Ephrin type-B receptor 1 (Homo sapiens) (UniProt P54762)
Sequence (P54762 whole entry): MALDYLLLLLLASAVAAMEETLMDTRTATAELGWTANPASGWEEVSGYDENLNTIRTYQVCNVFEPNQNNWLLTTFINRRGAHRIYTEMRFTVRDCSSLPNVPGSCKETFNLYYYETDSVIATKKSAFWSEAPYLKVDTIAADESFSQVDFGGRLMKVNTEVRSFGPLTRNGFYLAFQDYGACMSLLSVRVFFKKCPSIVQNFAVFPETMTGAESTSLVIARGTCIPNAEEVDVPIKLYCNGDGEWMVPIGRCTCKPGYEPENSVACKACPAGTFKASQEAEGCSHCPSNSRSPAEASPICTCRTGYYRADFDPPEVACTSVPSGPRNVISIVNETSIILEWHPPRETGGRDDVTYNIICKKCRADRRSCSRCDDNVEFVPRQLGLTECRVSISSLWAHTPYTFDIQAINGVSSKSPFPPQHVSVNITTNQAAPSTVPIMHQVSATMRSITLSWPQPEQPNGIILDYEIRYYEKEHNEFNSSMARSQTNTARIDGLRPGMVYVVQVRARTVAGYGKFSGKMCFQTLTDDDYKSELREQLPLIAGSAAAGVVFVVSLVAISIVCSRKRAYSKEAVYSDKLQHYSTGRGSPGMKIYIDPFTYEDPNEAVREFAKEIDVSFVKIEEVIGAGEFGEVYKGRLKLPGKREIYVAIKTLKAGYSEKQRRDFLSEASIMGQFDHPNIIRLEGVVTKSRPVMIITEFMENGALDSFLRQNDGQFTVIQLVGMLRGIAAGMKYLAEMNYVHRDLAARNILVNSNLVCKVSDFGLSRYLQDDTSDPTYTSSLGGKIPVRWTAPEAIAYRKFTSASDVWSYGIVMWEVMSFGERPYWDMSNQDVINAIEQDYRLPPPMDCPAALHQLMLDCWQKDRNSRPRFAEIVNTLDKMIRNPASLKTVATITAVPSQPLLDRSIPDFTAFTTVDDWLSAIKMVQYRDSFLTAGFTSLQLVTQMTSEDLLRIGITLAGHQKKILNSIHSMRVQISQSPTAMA
condition-info: at 1 µM
metric-name: residual activity (%)
Unit % implied. Number only.

Problem: Please report the measured residual activity for `c1ccc(-c2n[nH]cc2-c2ccnc3ccccc23)nc1`
Solution: 104

Problem: Please report the measured residual activity for `Oc1c2ccccc2c2c3c(cccc13)N=N2`
Solution: 91

Problem: Please report the measured residual activity for `Nc1n[nH]c2nnc(-c3c(-c4ccccc4)nn4ccccc34)cc12`
Solution: 98

Problem: Please report the measured residual activity for `N#C/C(=C(\N)Sc1ccc(N)cc1)c1ccccc1C(F)(F)F`
Solution: 110

Problem: Please report the measured residual activity for `O=C1Nc2cc(Br)ccc2/C1=C1/Nc2ccccc2/C1=N\O`
Solution: 34
